Reported values of AC35 for individual entries
tested on: HepG2 viability, CellTiter-Glo ATP luminescence, 72 h; test: viability loss in human hepatoma cells – cell-based, CellTiter-Glo luminescence, cherry-pick, set 2, cytotoxicity control, dose response (AID 743395)

Some solved cases for reference:
So, `Cc1nc(/N=C(\N)NC(=O)NC2CCCCC2)nc2ccccc12` ? Its AC35 was 20.2 µM

So for COc1cc2c(cc1OC)C(C)N(C(=O)Nc1cc(C)cc(C)c1)CC2 (stereo not given) , the logged AC35 turned out to be 7.81 µM

# compound `O=c1cc(-c2ccc(O)c(O)c2)oc2cc(O)cc(O)c12` ; its AC35 = 19 µM

compound O=C(CCc1ccccc1)NCC(c1ccco1)N1CCc2ccccc21 (stereo not given) , AC35 observed: 16.7 µM

Sample `Oc1c(Cl)cc(CN2CCOCC2)c2cccnc12` ; AC35 observed: 7.67 µM

For `COc1cc(OC)cc(C(=O)N[C@H](C(=O)Nc2nc3ccccc3[nH]2)C(C)C)c1` the compound record lists AC35 as 10.2 µM

Briefly, AC35 measured for CCC1=C(CC2NCCc3ccccc32)CC2c3cc(OC)c(OC)cc3CCN2C1 (stereo not given) : 18.2 µM

Consider `O=C1CN(S(=O)(=O)Cc2ccccc2)C[C@@H]2[C@@H](c3ccc(C#Cc4cccc(F)c4)cc3)[C@H](CO)N12` . Its measured AC35 is 14.1 µM

# compound `O=C(c1cccc(F)c1)N1CC(=O)N2[C@@H](CO)[C@@H](c3ccc(C#Cc4ccc(F)cc4)cc3)[C@@H]2C1` ; its AC35 = 17.9 µM

Further cases:
Form: compound = `CCOc1ccc(NC(=O)c2cc(OC)nc3ccccc23)cc1` ; AC35 = 14.3 µM

###

system: HepG2 viability, CellTiter-Glo ATP luminescence, 72 h; assay: viability loss in human hepatoma cells – cell-based, CellTiter-Glo luminescence, cherry-pick, set 2, cytotoxicity control, dose response (AID 743395)
endpoint: AC35

Recorded AC35 (compound `COc1ccc(COc2cc(-c3cccc(OC)c3)nc3ccc(NC(=O)c4ccc(OC)cc4)cc23)cc1` ): 7.56 µM

Recorded result, `COc1cc2c(C#CCCO)c(-c3ccsc3)oc(=O)c2cc1OC` , AC35: 21 µM

Query `CN1C(=O)NC(=O)C2(CCCC2)C1=O` yields AC35 of 9.42 µM

For this compound ( `NS(=O)(=O)c1ccc(S(=O)(=O)N(CCc2ccccc2)Cc2ccccn2)cc1` ), measured AC35 is 21.5 µM

# AC35 of `O=c1[nH]c(/C=C/c2ccccc2F)nc2ccccc12` = 9.06 µM

AC35 in this record for `CC(C)C[C@H](NC(=O)c1nc[nH]c1C(=O)N1CCN(C(=O)OC(C)(C)C)CC1)C(=O)OC(C)(C)C` : 14.6 µM

AC35 in this record for `O=C1C=C(NCCc2cc(Br)c(O)c(Br)c2)C(=O)c2ncccc21` : 6.95 µM

Documented AC35 of `COCCNC(=O)c1cc(-c2ccc(-c3ccccc3)cc2)nc2ccccc12` : 17.9 µM

Continuing:
Briefly, AC35 measured for COc1cccc(-c2ccc(C3[C@@H]4CN(S(=O)(=O)c5cccc(OC)c5)C[C@H]3N4)cc2)c1 (some centres undefined) : 8.91 µM

Record `COc1cccc(N=Nc2ccc3cccnc3c2O)c1` , field AC35: 4.42 µM

The reported value for `COC(=O)c1cc(C(=O)N2CCN(c3cccc(Cl)c3)CC2)cc([N+](=O)[O-])c1` in terms of AC35 is 14.1 µM

Provenance of the data: PubChem BioAssay AID743395
